// provenance: PubChem BioAssay (NCATS)

Test: Quantitative High-Throughput drug screen in 47 multiple myeloma cell lines against the NCATS MIPE library collection: OPM1_PLB cell viability assay (AID 1918989); note: nearly all actives have a fitted effect of over 40% in size; note: potency is the fitted concentration of half-maximal effect
Conditions: CellTiter-Glo, 48 h; series mostly up to 45.8 µM
Description: PI: Beverly A. Mock Ph.D. Laboratory of Cancer Biology and Genetics, Center for Cancer Research, National Cancer Institute, National Institute of Health, Bethesda, Maryland […] 5; Detector; 425V; Luminescence; Viewlux PerkinElmer. […] 1. […] Briefly, the corresponding myeloma cell lines were screened in 1,536-well plates with 500 cells, 5-uL per well for inhibition of cell viability (assessed by measuring ATP levels with CellTiterGlo). […]
Records with an inconclusive call do not appear. Calls of active or inactive are those of the source. Calls come from the whole dose curve; as a rule, active = well fitted cell-killing curve with a large enough effect; inconclusive = small, poorly fitted or top-dose-only effect, or effect the other way; inactive = no such curve, though single readings can be large or run the other way.
endpoint: Potency

compound	observed-value
COc1ccc(C[C@@H](C)[C@@H](C)Cc2ccc(OC)c(OC)c2)cc1OC	264 nM (active)
C[C@]12CCC(=O)C=C1[C@@H]1CC1[C@H]1[C@H]3[C@@H]4C[C@H]4[C@@]4(CCC(=O)O4)[C@@]3(C)CC[C@H]12 (stereo not given in full)	inactive
NC(=O)N1CCC(CC(=O)N2CCC([C@H]3c4ncc(Br)cc4CCc4cc(Cl)cc(Br)c43)CC2)CC1	23500 nM (active)
Oc1cc(-c2nc(-c3ccccc3)[nH]c2-c2ccncc2)ccc1Cl	14800 nM (active)
O=C(C=CC=Cc1ccc2c(c1)OCO2)N1CCCCC1	inactive

Please look up its Potency: O=[N+]([O-])c1cn2c(n1)OC[C@@H](OCc1ccc(OC(F)(F)F)cc1)C2
inactive

Recorded Potency for CC(C(C)N1CC(=O)NC(=O)C1)N1CC(=O)NC(=O)C1 (stereo not given) , please?
inactive
